Please provide measured pKa for the entries that follow.
# assay: Acid dissociation constants pKa of acid generated from compound (I), by computation (ACD/Labs software package 1; Gaussian 16 DFT if not computable)
# experimental.parameters: Table 1; values equal the difference between maximum and minimum pKa of the generated acid groups
Answer using only a numeral; do not append any unit.

Prompt: // lookup pKa for O=S(=O)(O)c1ccc([S+](c2ccccc2)c2ccc(OCC(F)(F)S(=O)(=O)[O-])cc2)cc1 (stereo not drawn) [Compound X-6]
Response: 0.77

Prompt: // lookup pKa for Cc1ccc([I+]c2ccc(C(=O)NS(=O)(=O)C(F)(F)C(F)(F)C(F)(F)S(=O)(=O)[N-]S(=O)(=O)C(F)(F)F)cc2)cc1 [Compound X-12]
Response: 5.67

Prompt: // lookup pKa for COc1ccc([I+]c2cccc(C(=O)NS(=O)(=O)C(F)(F)C(F)(F)C(F)(F)S(=O)(=O)[N-]S(=O)(=O)C(F)(F)F)c2)cc1 [Compound X-11]
Response: 10.26

###

# assay: Acid dissociation constants pKa of acid generated from compound (I), by computation (ACD/Labs software package 1; Gaussian 16 DFT if not computable)
# experimental.parameters: Table 1; values equal the difference between maximum and minimum pKa of the generated acid groups
measured.property: pKa
Answer using only a numeral; do not append any unit.

Prompt: // lookup pKa for O=C(NC(C(F)(F)F)C(F)(F)S(=O)(=O)[O-])c1ccc([S+](c2ccccc2)c2ccccc2S(=O)(=O)O)cc1 (stereo not shown) [Compound X-3]
Response: 1.24

Prompt: // lookup pKa for O=C(NC(=O)C(F)(F)S(=O)(=O)[O-])c1ccc([S+](c2ccccc2)c2ccccc2)cc1 [Compound X-1]
Response: 9.96

Prompt: // lookup pKa for O=C([N-]C(=O)c1ccccc1[I+]c1ccccc1)c1ccc([I+]c2ccc(OS(=O)(=O)C(F)(F)C(F)(F)C(F)(F)S(=O)(=O)[O-])cc2)cc1 [Compound X-16]
Response: 12.11

Prompt: // lookup pKa for O=C([N-]S(=O)(=O)C(F)(F)C(F)(F)C(F)(F)S(=O)(=O)[N-]C(=O)c1ccccc1[S+](c1ccccc1)c1ccccc1)c1ccccc1[I+]c1ccccc1 [Compound X-9]
Response: 0.89
